Recorded IC50 for the following molecules
target: S. cerevisiae eIF2B mutant, luciferase reporter luminescence; test: potency on yeast eIF2B luminescence signal – S. cerevisiae, mutant, wild-type, growth, dose response (AID 792); conditions: measured here: mutant yeast growth
Records with an inconclusive call do not appear.

These solved cases illustrate the format of a correct answer.
Molecule	IC50
COc1ccc2c(c1)CCc1c(C(=O)NCc3cccnc3)noc1-2	> 100 µM
CN1C(=O)CC2(CC(=O)N(Cc3ccccc3)C2)C1=O (configuration not stated)	> 100 µM
CCOCCCNC(=O)c1c[nH]c2ccc(C)cc2c1=O	> 100 µM
CCCCCn1c(SCC(=O)OCC)nc2cc(C(=O)NCc3ccco3)ccc2c1=O	> 100 µM

Inquiry: Find the recorded IC50 belonging to `COCCN1CN(S(=O)(=O)c2ccc(Cl)cc2)c2nc3ccccc3nc21` and report it.
Reply text: > 100 µM

Inquiry: Find the recorded IC50 belonging to `COc1cccc(-n2c(C)nnc2SCC(=O)Nc2ccccc2N2CCOCC2)c1` and report it.
Reply text: > 100 µM

Inquiry: Find the recorded IC50 belonging to `Cc1nn(-c2ccccc2)c(Cl)c1/C=N/Nc1ccc(S(=O)(=O)Nc2ccccc2C(=O)O)cc1[N+](=O)[O-]` and report it.
Reply text: > 100 µM

---

molecular target: S. cerevisiae eIF2B mutant, luciferase reporter luminescence; assay: potency on yeast eIF2B luminescence signal – S. cerevisiae, mutant, wild-type, growth, dose response (AID 792)
Records with an inconclusive call do not appear. Active and inactive are the calls of the source. How the calls were made is not given here.
Result Type: IC50

Molecule	Result Type	Result
Cc1ccc2c(c1)C1CN(C)CCC1N2C(=O)Nc1cccc(Cl)c1 (stereo unspecified)	IC50	> 100 µM (inactive)
CCOc1ccc(C2NC(=O)NC(C)=C2C(=O)OC)cc1C (stereo unspecified)	IC50	inactive
CCCCN1C(=O)CN(CCc2ccccc2)C(=O)C1c1ccc(OC)cc1 (stereo unspecified)	IC50	> 100 µM (inactive)
COc1ccc(C(=O)COC(=O)CN2C(=O)NC(C)(C)C2=O)cc1OC	IC50	> 100 µM (inactive)
C=CCn1c(SCC(=O)Nc2cc(C)cc(C)c2)nnc1-c1cnccn1	IC50	> 100 µM (inactive)

Now consider the entry below.
Inquiry: Recall the recorded IC50 for `CCN(CC)c1ccc(NC(=O)c2cccc(OC)c2)c(C)c1` with S. cerevisiae eIF2B mutant, luciferase reporter luminescence and state it.
Reply text: inactive

---

molecular target: S. cerevisiae eIF2B mutant, luciferase reporter luminescence; assay: potency on yeast eIF2B luminescence signal – S. cerevisiae, mutant, wild-type, growth, dose response (AID 792); details: measured here: mutant yeast growth
pIC50: −log10 of the molar value. Inconclusive results are not listed.
Result Type: pIC50

Compound	Experimental System	Result Type	Result
Cc1cc2nnc(SCC(=O)NCc3cccs3)n2c2ccccc12	S. cerevisiae eIF2B mutant, luciferase reporter luminescence	pIC50	< 4.00
COc1ccccc1NC(=O)Cc1csc(N)n1	S. cerevisiae eIF2B mutant, luciferase reporter luminescence	pIC50	< 4.00

Inquiry: Find the recorded pIC50 belonging to `Nc1cc2c(cc1C(=O)c1ccccc1)OCCO2` and report it.
Reply text: < 4.00

Inquiry: Find the recorded pIC50 belonging to `Oc1ccccc1-c1nnc(-c2ccc(C(F)(F)F)cc2)o1` and report it.
Reply text: < 4.00

Inquiry: Find the recorded pIC50 belonging to `Nn1c(CSc2nc3ccccc3o2)nnc1CSc1nc2ccccc2o1` and report it.
Reply text: < 4.00
